Hello, the source for this data is the supplement of paper PMC6897291, in case you need it.

- Tested on: U-2932
- test-method-notes: growth inhibition by drug plus 177Lu-lilotomab satetraxetan (1 - RLU/untreated control) (fraction); higher = stronger inhibition
- condition-description: 1000 nM; time (day): 5; 177Lu-lilotomab satetraxetan 1 ug/ml
Each item that follows carries a reported growth inhibition by drug plus 177Lu-lilotomab satetraxetan.
Quick one: just the number, no unit, thanks!

mol-smiles: C[C@]12CCC(=O)C(O)=C1CC[C@@H]1[C@@H]2CC[C@]2(C)C(=O)CC[C@@H]12
numeric-readout: 0.0247
--
mol-smiles: Cn1cc(C2=C(c3cn(C4CCN(Cc5ccccn5)CC4)c4ccccc34)C(=O)NC2=O)c2ccccc21
numeric-readout: 0.0211
--
mol-smiles: CC1=C2C[C@H]3[C@@H](CC=C4C[C@@H](O)CC[C@@]43C)[C@@H]2CC[C@]12O[C@@H]1C[C@H](C)CN[C@H]1[C@H]2C
numeric-readout: 0.0391
--
mol-smiles: C=C1C[C@@H]2[C@H](CC[C@]3(C)C(=O)CC[C@@H]23)[C@@]2(C)C=CC(=O)C=C12
numeric-readout: 0.0989
--
mol-smiles: Cc1ccccc1-n1c(Cn2cnc3c(N)ncnc32)nc2cccc(C)c2c1=O
numeric-readout: 0.0914

Param item = CC(=O)Nc1ccc(OC[C@](C)(O)C(=O)Nc2ccc([N+](=O)[O-])c(C(F)(F)F)c2)cc1 ; retrieve measured growth inhibition by drug plus 177Lu-lilotomab satetraxetan.
0.0839

Item O=C(O)c1nn(Cc2ccc(Cl)cc2Cl)c2ccccc12 has what recorded growth inhibition by drug plus 177Lu-lilotomab satetraxetan?
0.167

Suppose we examine the molecule N[C@@H](Cc1ccc(N(CCCl)CCCl)cc1)C(=O)O ; what growth inhibition by drug plus 177Lu-lilotomab satetraxetan value has been reported?
0.0598

---

Below is a list of entries, each paired with its recorded growth inhibition by drug plus 177Lu-lilotomab satetraxetan value.
- Tested on: RIVA
- test-method-notes: growth inhibition by drug plus 177Lu-lilotomab satetraxetan (1 - RLU/untreated control) (fraction); higher = stronger inhibition
- condition-description: 100 nM; time (day): 4; 177Lu-lilotomab satetraxetan 0.5 ug/ml
The response must contain the number and no unit.

// solved cases for growth inhibition by drug plus 177Lu-lilotomab satetraxetan follow
compound: Cc1cc2c(C(C)C)c(O)c(O)c(C=O)c2c(O)c1-c1c(C)cc2c(C(C)C)c(O)c(O)c(C=O)c2c1O
numeric-readout: 0.353
//
compound: O=P1(N(CCCl)CCCl)NCCCO1 (stereo not given) [Cyclophosphamide monohydrate]
numeric-readout: 0.403
//
compound: N[C@@H](Cc1ccc(N(CCCl)CCCl)cc1)C(=O)O
numeric-readout: 0.48
//
compound: Cn1cc(C2=C(c3cn(C4CCN(Cc5ccccn5)CC4)c4ccccc34)C(=O)NC2=O)c2ccccc21
numeric-readout: 0.435
//
compound: O=C(Oc1ccc([N+](=O)[O-])cc1)N1CCC(C(O)(c2ccc3c(c2)OCO3)c2ccc3c(c2)OCO3)CC1
numeric-readout: 0.517

Sample C=C1C[C@@H]2[C@H](CC[C@]3(C)C(=O)CC[C@@H]23)[C@@]2(C)C=CC(=O)C=C12 — what was its growth inhibition by drug plus 177Lu-lilotomab satetraxetan?
0.528

Return reported growth inhibition by drug plus 177Lu-lilotomab satetraxetan; argument: CCC1(c2ccc(N)cc2)CCC(=O)NC1=O (stereo not given) [Aminoglutethimide (Cytadren)]
0.376

// growth inhibition by drug plus 177Lu-lilotomab satetraxetan lookup, key: C[C@]12CCC(=O)C(O)=C1CC[C@@H]1[C@@H]2CC[C@]2(C)C(=O)CC[C@@H]12
0.508

Which growth inhibition by drug plus 177Lu-lilotomab satetraxetan value is on record for CC(C)[C@]12O[C@H]1[C@@H]1O[C@]13[C@]1(O[C@H]1C[C@H]1C4=C(CC[C@@]13C)C(=O)OC4)[C@@H]2O [Triptolide] ?
0.967

Given CN(C)CCN(C)CCc1ccc(Cl)c(Cl)c1 , state its recorded growth inhibition by drug plus 177Lu-lilotomab satetraxetan.
0.192
